Each entry below lists one item and its recorded protein stability index value.
B1: VTI1B (parent)
chain: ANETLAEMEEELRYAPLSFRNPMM

Variants of: B1
Experiment: protein stability index of a GFP-peptide fusion (GPS, HEK-293T) (PSI 1-6); higher = more stable;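 also: lentivirally expressed fusions sorted by FACS into six bins by GFP to DsRed ratio, PSI derived from sequencing read proportions per bin multiplied by bin number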
Settings: c terminus: a fixed tail appended
Keep the answer to the number alone.

change: E10A
measured: 2.04
--
change: R13F
measured: 2.01
--
change: Y14C
measured: 1.98

Turning now to a further variant:
For "T4R" , what is its reported protein stability index?
1.99
